- system-tested: T1, DRH-3 (Caenorhabditis elegans, UniProt Q93413 1-1119)
- T1 sequence: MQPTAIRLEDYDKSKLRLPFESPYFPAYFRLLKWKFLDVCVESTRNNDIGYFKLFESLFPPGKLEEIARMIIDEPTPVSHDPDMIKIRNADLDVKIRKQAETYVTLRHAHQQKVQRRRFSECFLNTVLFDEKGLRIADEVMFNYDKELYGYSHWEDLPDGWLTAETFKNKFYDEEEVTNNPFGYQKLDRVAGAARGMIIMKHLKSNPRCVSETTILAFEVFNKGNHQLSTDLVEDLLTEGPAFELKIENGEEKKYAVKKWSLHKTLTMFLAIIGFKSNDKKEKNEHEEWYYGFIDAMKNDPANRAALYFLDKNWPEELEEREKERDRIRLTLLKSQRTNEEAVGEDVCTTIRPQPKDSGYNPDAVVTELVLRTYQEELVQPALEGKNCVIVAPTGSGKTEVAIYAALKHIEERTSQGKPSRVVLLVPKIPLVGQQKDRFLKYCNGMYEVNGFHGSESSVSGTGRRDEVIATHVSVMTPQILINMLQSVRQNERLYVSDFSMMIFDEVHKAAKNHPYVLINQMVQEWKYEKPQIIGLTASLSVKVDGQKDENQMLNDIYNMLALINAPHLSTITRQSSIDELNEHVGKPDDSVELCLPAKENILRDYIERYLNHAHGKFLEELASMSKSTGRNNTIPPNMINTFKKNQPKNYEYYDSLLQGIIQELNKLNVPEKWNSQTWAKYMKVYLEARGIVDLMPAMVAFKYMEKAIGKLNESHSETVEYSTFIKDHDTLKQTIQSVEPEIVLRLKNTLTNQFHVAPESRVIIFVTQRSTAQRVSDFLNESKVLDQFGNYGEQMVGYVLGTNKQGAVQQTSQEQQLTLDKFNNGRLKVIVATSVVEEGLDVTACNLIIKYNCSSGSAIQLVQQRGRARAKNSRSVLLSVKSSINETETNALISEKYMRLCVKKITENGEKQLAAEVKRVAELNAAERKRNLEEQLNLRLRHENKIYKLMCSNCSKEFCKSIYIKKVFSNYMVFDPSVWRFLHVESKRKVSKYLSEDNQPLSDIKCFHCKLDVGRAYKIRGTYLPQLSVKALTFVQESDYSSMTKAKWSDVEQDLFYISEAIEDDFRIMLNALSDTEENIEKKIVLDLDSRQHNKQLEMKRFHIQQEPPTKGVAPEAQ
- protocol-summary: EMSA
Please go through the items and note down their Kd.
The reply must contain the numeric value and, after it, the unit.

Input line: Tell me Kd reported for ds25 (dsRNA) RNA 1: GGGUAUAGACUGACUAGGAUCUCCC RNA 2: GGGAGAUCCUAGUCAGUCUAUACCC
Output line: 218 nM

Input line: Tell me Kd reported for ds34 (dsRNA) RNA 1: GGAGUGCAUCUCCUUCCCUCCUUUCCUUCUGGUC RNA 2: GACCAGAAGGAAAGGAGGGAAGGAGAUGCACUCC
Output line: 384 nM

The reported measurements were obtained from paper PMC3973318.
